Value source: ChEMBL document CHEMBL4387781

Assay: MRT in Sprague-Dawley rat at 1 mg/kg, iv
Format: ADME, organism-based
Conditions: in vivo
PARAMETER: MRT (h)

[[record]]
compound_structure_string = "C[C@@H](O[C@H]1CC[C@]2(CCC(F)(F)CO2)CC1)c1nc(-c2cc(F)c(CS(C)(=O)=O)c(F)c2)no1"
val = 6.4


----------
Biological target: Cytochrome P450 2C19 (Homo sapiens, UniProt P33261)
Sequence (P33261 whole entry): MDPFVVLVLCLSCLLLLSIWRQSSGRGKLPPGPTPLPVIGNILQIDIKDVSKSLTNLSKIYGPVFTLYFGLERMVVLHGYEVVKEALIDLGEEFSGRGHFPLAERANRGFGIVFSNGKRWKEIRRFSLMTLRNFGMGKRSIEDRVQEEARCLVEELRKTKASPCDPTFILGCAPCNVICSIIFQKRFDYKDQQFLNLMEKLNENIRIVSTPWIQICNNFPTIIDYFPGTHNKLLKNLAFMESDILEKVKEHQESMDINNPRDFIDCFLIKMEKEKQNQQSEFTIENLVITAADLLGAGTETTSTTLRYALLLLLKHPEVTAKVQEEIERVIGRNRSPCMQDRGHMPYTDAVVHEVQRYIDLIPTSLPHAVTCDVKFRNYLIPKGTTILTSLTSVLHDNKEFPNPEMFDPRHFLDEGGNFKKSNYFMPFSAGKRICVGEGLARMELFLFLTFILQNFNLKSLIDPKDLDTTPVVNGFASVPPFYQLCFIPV
pIC50: −log10 of the molar value.
PARAMETER: pIC50

[[record]]
compound_structure_string = "C[C@@H](O[C@H]1CC[C@]2(CCC(F)(F)CO2)CC1)c1nc(-c2cc(F)c(CS(C)(=O)=O)c(F)c2)no1"
val = "< 4.30"

